A compilation of pKi values for hCRTH2 receptor (Homo sapiens (Human), UniProt Q9Y5Y4) from the published literature.
Give bare numbers, as −log10 of the molar value.

Observe how each entry below is paired with its result.
Cc1c(S(=O)(=O)c2nc3ccccc3s2)c2cc(F)ccc2n1CC(=O)O	6.68
Cc1ccc(S(=O)(=O)Nc2nccnc2-c2ccc(CN(C)c3ccc(OC(F)(F)F)cc3)cc2)cc1	5.23
CCn1c(C(=O)Nc2ccc(Cn3nc(C)c(CC(=O)O)c3C)c(F)c2)cc2cc(F)ccc21	9.70
CCc1nn(Cc2ccc(-c3nc4cc(F)ccc4[nH]3)cc2)c(CC)c1CC(=O)O	8.89
Cc1c(Cc2nc3ccccc3s2)c2cc(F)ccc2n1CC(=O)O	8.22

Summary for this compound, O=C(O)CCCN1C(=O)C2(CC(=O)N(Cc3ccc(C(F)(F)F)cc3)C2=O)c2cc(Cl)ccc21 (centres unmarked) : pKi is 6.17

---

A compilation of Ki values for hCRTH2 receptor (Homo sapiens (Human), UniProt Q9Y5Y4) from the published literature.
Give bare numbers, in nM.

Observe how each entry below is paired with its result.
CCOCCN1C(=O)CC2(C1=O)C(=O)N(CC(=O)O)c1ccc(Cl)cc12 (centres unmarked)	1030
CC(Oc1ccccc1Cc1cc(Cl)ccc1OCC(=O)O)C(=O)N1CCCC1 (centres unmarked)	82.4

# map each compound to its Ki
1. Cc1c(CC(=O)O)c2cccnc2n1C(C)c1ccc(C(F)(F)F)cc1 (centres unmarked)
2. Cc1nn(Cc2ccc(-c3nc4cc(Cl)cnc4[nH]3)cc2F)c(C)c1CC(=O)O

A)
1: 45; 2: 18.5

---

A compilation of Ki values for hCRTH2 receptor (Homo sapiens (Human), UniProt Q9Y5Y4) from the published literature.

O=S(=O)(Nc1nccnc1-c1ccc(COc2ccc3ccccc3c2)cc1)c1ccccc1Cl	2320 nM
O=C(O)Cc1c2n(c3ccccc13)CC(n1cc(-c3ccc(F)cc3)nn1)CC2 (centres unmarked)	10 to 50 nM
O=C(O)Cn1cc(C2c3ccccc3S(=O)(=O)N2Cc2csc(-c3cccs3)n2)c2ccccc21 (centres unmarked)	< 1000 nM
Cc1noc(-c2ccccc2)c1CN1CC2(CC1=O)C(=O)N(CC(=O)O)c1ccc(Cl)cc12 (centres unmarked)	3.4 nM
O=C(O)Cn1cc(C2c3ccccc3S(=O)(=O)N2Cc2ccccc2-c2ccccc2)c2ccccc21 (centres unmarked)	< 1000 nM

# map each compound to its Ki
1. CCCc1nn(Cc2ccc(NC(=O)c3ccccc3)cc2)c(C(C)C)c1CC(=O)O
2. CCCc1nc2cc(N(Cc3ccccc3)C(=O)C(C)C)ccc2n1CC(=O)O

A)
1. 1.6 nM
2. > 10000 nM

Summary for this compound, CCCc1nc2cc(N(Cc3ccc(F)cc3)C(C)=O)ccc2n1CC(=O)O : Ki is < 100 nM

---

A compilation of Ki values for hCRTH2 receptor (Homo sapiens (Human)) from the published literature.
Numbers only, in nM.

Observe how each entry below is paired with its result.
CCc1nn(Cc2ccc(-c3nc4cc(OC)ccc4[nH]3)cc2)c(CC)c1CC(=O)O	1.3
Cc1c(CC(=O)O)c2cc(F)ccc2n1Cc1ccc(S(=O)(=O)N(C)C2CCCCC2)cc1	52

# map each compound to its Ki
1. COc1cccc(NS(=O)(=O)c2c(C)n(CC(=O)O)c3ccc(F)cc23)c1
2. Cc1cccc(NS(=O)(=O)c2c(C)n(CC(=O)O)c3ccc(F)cc23)c1
3. CCc1nn(Cc2ccc(-c3nc4nc(OC)ccc4[nH]3)cc2F)c(CC)c1CC(=O)O
4. O=C(O)CN1C(=O)[C@@]2(CC(=O)N(Cc3cc(Cl)ccc3F)C2=O)c2cc(Cl)ccc21
5. Cc1ccc(S(=O)(=O)n2cccc2Cc2c(C)n(CC(=O)O)c3ccc(F)cc23)cc1
6. Cc1nn(Cc2ccc(-c3nc4cc(Br)ccc4[nH]3)cc2F)c(C)c1CC(=O)O
7. Cc1c(CC(=O)O)c2ccc(C#N)cn2c1Cc1ccc(S(C)(=O)=O)cc1

A)
1: 531; 2: 176; 3: 1.3; 4: 150; 5: 0.2; 6: 1.6; 7: 1.7

# map each compound to its Ki
1. Cc1ccc(CNS(=O)(=O)c2cc(-c3cn(CC(=O)O)cc3C#N)cc(C(F)(F)F)c2)o1
2. CCc1nn(Cc2ccc(-c3nc4cncnc4[nH]3)cc2)c(CC)c1CC(=O)O
3. Cc1nn(Cc2ccc(NC(=O)c3cc4ccccc4[nH]3)cc2F)c(C)c1CC(=O)O
4. O=S(=O)(Nc1nccnc1-c1ccc(COc2ccc3c(c2)CCCC3)cc1)c1ccccc1Cl

A)
1: 2; 2: 85.4; 3: 0.8; 4: 2590
